Each entry below carries its recorded Ki.
Target: purified class A, C and D enzymes (UniProt Q9F663)
Construct: rows headed: Ki (KPC-2, NCF); other: purified KPC-2; nitrocefin reporter substrate
Conditions: read-out: Ki (KPC-2, NCF); purified KPC-2; nitrocefin reporter substrate

Record excerpt, results attached:
- compound: "Nc1nnc(S[C@H]2Cc3ccc(OCC(=O)NC4CNC4)c(C(=O)O)c3OB2O)s1"
  Ki: "> 1 µM"
- compound: "O=C(O)c1cccc2c1OB(O)[C@@H](Sc1nnc(NC3CNC3)s1)C2"
  Ki: "0.1 to 1 µM"
- compound: "COc1ccc2c(c1C(=O)O)OB(O)[C@@H](Sc1nnc(NC(CN)CN)s1)C2"
  Ki: "> 1 µM"
- compound: "COc1ccc2c(c1C(=O)O)OB(O)[C@@H](Sc1nnc(NC(=N)N)s1)C2"
  Ki: "0.1 to 1 µM"
- compound: "COc1ccc2c(c1C(=O)O)OB(O)[C@@H](Sc1nnc(NCCCN)s1)C2"
  Ki: "0.1 to 1 µM"

Report measured Ki; entry is `Cn1ncc(C(N)=O)c1S[C@H]1Cc2ccc(F)c(C(=O)O)c2OB1O`
0.1 to 1 µM

Output measured Ki for this item: `O=C(O)c1c(F)ccc2c1OB(O)[C@@H](Sc1nccs1)C2`
0.1 to 1 µM

Specify measured Ki for NC(=O)CC1Cc2cccc(C(=O)O)c2OB1O (stereo not drawn) .
< 0.1 µM

Quote Ki reported for `Cn1cnnc1S[C@H]1Cc2cccc(C(=O)O)c2OB1O` please.
0.1 to 1 µM

* * *

Molecular target: VIM-1 (Pseudomonas aeruginosa, UniProt A0A0F7KYQ8)
Construct: culture supernatant used unpurified
Test: biochemical
Details: cleavage of nitrocefin (200 uM) by VIM-1 supernatant
measure.name: IC50

Solved entries (count: 10):
- molecule: "COc1ccc2c(c1C(=O)O)OB(O)[C@@H](Sc1nnc(SC3CNC3)s1)C2 [Compound 108]"
  tgt: "VIM-1 (Pseudomonas aeruginosa, UniProt A0A0F7KYQ8)"
  IC50: "< 1000 nM"
- molecule: "CCOc1ccc2c(c1C(=O)O)OB(O)[C@@H](Sc1nnc(NC3CNC3)s1)C2 [Compound 118]"
  tgt: "VIM-1 (Pseudomonas aeruginosa, UniProt A0A0F7KYQ8)"
  IC50: "< 1000 nM"
- molecule: "O=C(O)c1c(F)ccc2c1OB(O)[C@@H](Sc1nccs1)C2 [Compound 45]"
  tgt: "VIM-1 (Pseudomonas aeruginosa, UniProt A0A0F7KYQ8)"
  IC50: "≥ 1000 nM"
- molecule: "COc1ccc2c(c1C(=O)O)OB(O)[C@@H](Sc1nnc(NCCCN)s1)C2 [Compound 100]"
  tgt: "VIM-1 (Pseudomonas aeruginosa, UniProt A0A0F7KYQ8)"
  IC50: "< 1000 nM"
- molecule: "COc1ccc2c(c1C(=O)O)OB(O)[C@@H](Sc1nnc(SCCCN)s1)C2 [Compound 113]"
  tgt: "VIM-1 (Pseudomonas aeruginosa, UniProt A0A0F7KYQ8)"
  IC50: "< 1000 nM"
- molecule: "Nc1nnc(S[C@H]2Cc3ccc(F)c(C(=O)O)c3OB2O)s1 [Compound 23]"
  tgt: "VIM-1 (Pseudomonas aeruginosa, UniProt A0A0F7KYQ8)"
  IC50: "≥ 1000 nM"
- molecule: "COc1ccc2c(c1C(=O)O)OB(O)[C@@H](Sc1nnc(SCCN3CCOCC3)s1)C2 [Compound 110]"
  tgt: "VIM-1 (Pseudomonas aeruginosa, UniProt A0A0F7KYQ8)"
  IC50: "< 1000 nM"
- molecule: "Nc1nnc(S[C@H]2Cc3ccc(OCC(=O)NC4CNC4)c(C(=O)O)c3OB2O)s1 [Compound 81]"
  tgt: "VIM-1 (Pseudomonas aeruginosa, UniProt A0A0F7KYQ8)"
  IC50: "≥ 1000 nM"
- molecule: "O=C(O)c1c(OCCF)ccc2c1OB(O)[C@@H](Sc1nncs1)C2 [Compound 87]"
  tgt: "VIM-1 (Pseudomonas aeruginosa, UniProt A0A0F7KYQ8)"
  IC50: "< 1000 nM"
- molecule: "O=C(O)c1c(F)ccc2c1OB(O)[C@@H](SC1CNC1)C2 [Compound 46]"
  tgt: "VIM-1 (Pseudomonas aeruginosa, UniProt A0A0F7KYQ8)"
  IC50: "≥ 1000 nM"

# return recorded IC50 for entry O=C(O)c1cccc2c1OB(O)[C@@H](Sc1c[nH]nn1)C2 [Compound 12]
< 1000 nM

Output measured IC50 for this item: NCCSc1nnc(S[C@H]2Cc3cccc(C(=O)O)c3OB2O)s1 [Compound 116]
< 1000 nM

Please give the documented IC50 of N#CCOc1ccc2c(c1C(=O)O)OB(O)[C@@H](Sc1nncs1)C2 [Compound 86]
< 1000 nM

// fetch IC50 given entry O=C(O)c1cccc2c1OB(O)[C@@H](Sc1nncs1)C2 [Compound 1]
< 1000 nM

Write down IC50 measured for item COc1ccc2c(c1C(=O)O)OB(O)[C@@H](Sc1nncn1N)C2 [Compound 26]
< 1000 nM

Give a short answer stating reported IC50 for COc1ccc2c(c1C(=O)O)OB(O)[C@@H](Sc1nnc(NC3CNC3)s1)C2 [Compound 96] .
< 1000 nM

Given the molecule COc1ccc2c(c1C(=O)O)OB(O)[C@@H](Sc1nncn1C)C2 [Compound 28] , write its reported IC50.
< 1000 nM

Provide only the value of recorded IC50 for COc1ccc2c(c1C(=O)O)OB(O)[C@@H](Sc1nnc(SCCN3CCNCC3)s1)C2 [Compound 68]
< 1000 nM

Could you please provide reported IC50 for CC(C)Oc1ccc2c(c1C(=O)O)OB(O)[C@@H](Sc1nncs1)C2 [Compound 85] ? Thanks!
< 1000 nM

Give the measured IC50 for COc1ccc2c(c1C(=O)O)OB(O)[C@@H](Sc1nncn1CCCC(=O)O)C2 [Compound 41]
< 1000 nM

Name the recorded IC50 of the item CSc1ccc2c(c1C(=O)O)OB(O)[C@@H](Sc1nncn1N)C2 [Compound 25] in your answer.
< 1000 nM

Report IC50, nothing else, for this molecule: COc1ccc2c(c1C(=O)O)OB(O)[C@@H](Sc1nnc(SC(CN)CN)s1)C2 [Compound 109]
< 1000 nM

Complete the entry with IC50 for O=C(O)c1c(OCc2nncs2)ccc2c1OB(O)[C@@H](Sc1nncs1)C2 [Compound 93]
< 1000 nM

// Input: Nc1nnc(S[C@H]2Cc3cccc(C(=O)O)c3OB2O)s1 [Compound 4] . Output its IC50 only.
< 1000 nM

Using known records, supply IC50 for NC(=O)CS[C@H]1Cc2ccc(F)c(C(=O)O)c2OB1O [Compound 49]
≥ 1000 nM

# return recorded IC50 for input Cn1nnnc1S[C@H]1Cc2cccc(C(=O)O)c2OB1O [Compound 5]
≥ 1000 nM

* * *

Biological target: NDM-1 (Klebsiella pneumoniae, UniProt C7C422)
Sequence (C7C422 29-270, looked up, species assumed): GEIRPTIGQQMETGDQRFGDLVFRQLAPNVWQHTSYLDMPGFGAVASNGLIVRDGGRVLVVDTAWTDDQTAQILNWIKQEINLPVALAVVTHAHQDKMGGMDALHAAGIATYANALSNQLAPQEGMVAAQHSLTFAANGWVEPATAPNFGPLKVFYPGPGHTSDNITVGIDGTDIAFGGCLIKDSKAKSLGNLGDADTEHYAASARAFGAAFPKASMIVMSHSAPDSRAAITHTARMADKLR
Assay: biochemical
Settings: cleavage of imipenem (100 uM) by NDM-1; read-out: Ki, Imipenem
Form field: Ki (one value per entry).

Some molecules with recorded Ki:
- molecule: "Nc1nnc(S[C@H]2Cc3ccc(O)c(C(=O)O)c3OB2O)s1 [Compound 44]"
  Ki: "< 10 nM"
- molecule: "CC(C)Oc1ccc2c(c1C(=O)O)OB(O)[C@@H](Sc1nncs1)C2 [Compound 85]"
  Ki: "> 100 nM"
- molecule: "NC(=O)c1csc(S[C@H]2Cc3ccc(F)c(C(=O)O)c3OB2O)n1 [Compound 54]"
  Ki: "> 100 nM"
- molecule: "Nc1nnc(S[C@H]2Cc3ccc(OC(F)F)c(C(=O)O)c3OB2O)s1 [Compound 84]"
  Ki: "10 to 100 nM"
- molecule: "O=C(O)c1cccc2c1OB(O)[C@@H](Sc1nnc[nH]1)C2 [Compound 2]"
  Ki: "< 10 nM"

Specify Ki for COc1ccc2c(c1C(=O)O)OB(O)[C@@H](Sc1nnc(Sc3nnc(N)s3)s1)C2 [Compound 111] and stop.
> 100 nM

Fill in Ki for record Nc1nnc(CCS[C@H]2Cc3ccc(F)c(C(=O)O)c3OB2O)s1 [Compound 50]
> 100 nM

Please report the measured Ki for COc1ccc2c(c1C(=O)O)OB(O)[C@@H](Sc1nnc(NCCN)s1)C2 [Compound 97]
< 10 nM

Assign Ki to the following record: O=C(O)c1c(F)ccc2c1OB(O)[C@@H](Sc1nccs1)C2 [Compound 45]
10 to 100 nM

Please report Ki for the following molecule: COc1ccc2c(c1C(=O)O)OB(O)[C@@H](Sc1nnc(SC3CNC3)s1)C2 [Compound 108]
10 to 100 nM

* * *

Target: purified class A, C and D enzymes (Enterobacter cloacae)
Sequence (P05364 21-381): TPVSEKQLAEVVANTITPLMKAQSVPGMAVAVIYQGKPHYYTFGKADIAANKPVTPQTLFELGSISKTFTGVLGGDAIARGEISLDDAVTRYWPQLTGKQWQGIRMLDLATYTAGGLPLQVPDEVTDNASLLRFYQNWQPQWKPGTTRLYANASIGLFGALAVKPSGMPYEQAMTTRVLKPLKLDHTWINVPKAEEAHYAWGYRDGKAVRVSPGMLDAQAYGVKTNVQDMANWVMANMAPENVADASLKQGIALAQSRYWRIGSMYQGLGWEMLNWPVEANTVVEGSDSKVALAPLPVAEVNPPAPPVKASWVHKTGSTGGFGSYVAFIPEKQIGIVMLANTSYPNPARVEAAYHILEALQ
Type: biochemical
Details: purified P99/AmpC of ECL; nitrocefin reporter substrate
measure.name: Ki (P99/AmpC of ECL, NCF)

- compound: "COc1ccc2c(c1C(=O)O)OB(O)[C@@H](Sc1nnc(SCCN3CCOCC3)s1)C2"
  measure.name: "Ki (P99/AmpC of ECL, NCF)"
  test.value: "Y (0.1 μM to 1 μM)"
- compound: "COCCOc1ccc2c(c1C(=O)O)OB(O)[C@@H](Sc1nncs1)C2"
  measure.name: "Ki (P99/AmpC of ECL, NCF)"
  test.value: "Z (Greater than 1 μM)"
- compound: "COc1ccc2c(c1C(=O)O)OB(O)[C@@H](Sc1nnc(NC(=N)N)s1)C2"
  measure.name: "Ki (P99/AmpC of ECL, NCF)"
  test.value: "X (Less than 0.1 μM)"
- compound: "NCCSc1nnc(S[C@H]2Cc3cccc(C(=O)O)c3OB2O)s1"
  measure.name: "Ki (P99/AmpC of ECL, NCF)"
  test.value: "X (Less than 0.1 μM)"
- compound: "CSc1ccc2c(c1C(=O)O)OB(O)[C@@H](Sc1nncn1C)C2"
  measure.name: "Ki (P99/AmpC of ECL, NCF)"
  test.value: "Y (0.1 μM to 1 μM)"

Let me know recorded Ki (P99/AmpC of ECL, NCF) for C[S+]([O-])c1ccc2c(c1C(=O)O)OB(O)[C@@H](Sc1nnc(N)s1)C2 (stereo partly shown) , thanks.
X (Less than 0.1 μM)

// fetch Ki (P99/AmpC of ECL, NCF) given entry `COc1ccc2c(c1C(=O)O)OB(O)[C@@H](SC1CN(C3=NCCS3)C1)C2`
Z (Greater than 1 μM)

Recall and state the measured Ki (P99/AmpC of ECL, NCF) for `COc1ccc2c(c1C(=O)O)OB(O)[C@@H](Sc1nncn1N)C2` .
Y (0.1 μM to 1 μM)

Note down Ki (P99/AmpC of ECL, NCF) recorded for `Nc1nnc(S[C@H]2Cc3c(F)c(F)c(F)c(C(=O)O)c3OB2O)s1`
Y (0.1 μM to 1 μM)

Output measured Ki (P99/AmpC of ECL, NCF) for this item: `O=C(O)c1c(F)ccc2c1OB(O)[C@@H](SC1CNC1)C2`
Z (Greater than 1 μM)

Look up and state reported Ki (P99/AmpC of ECL, NCF) for `O=C(O)c1c(OCc2nncs2)ccc2c1OB(O)[C@@H](Sc1nncs1)C2`
Y (0.1 μM to 1 μM)

Answer with the recorded Ki (P99/AmpC of ECL, NCF) of `Nc1nnc(S[C@H]2Cc3ccc(OC(F)F)c(C(=O)O)c3OB2O)s1` only.
Y (0.1 μM to 1 μM)

Give reported Ki (P99/AmpC of ECL, NCF) value for `COc1ccc2c(c1C(=O)O)OB(O)[C@@H](SCCN1CCNCC1)C2`
Y (0.1 μM to 1 μM)

Item `Nc1nnc(S[C@H]2Cc3cc4nc[nH]c4c(C(=O)O)c3OB2O)s1` : provide Ki (P99/AmpC of ECL, NCF)
X (Less than 0.1 μM)

Give Ki (P99/AmpC of ECL, NCF) for the following compound: `COc1ccc2c(c1C(=O)O)OB(O)[C@@H](Sc1nnc(NC3CCNCC3)s1)C2`
Y (0.1 μM to 1 μM)

# return recorded Ki (P99/AmpC of ECL, NCF) for entry `CS(=O)(=O)Nc1ccc2c(c1C(=O)O)OB(O)[C@@H](Sc1nnc(N)s1)C2`
X (Less than 0.1 μM)

Consider the compound `NC(=O)c1csc(S[C@H]2Cc3ccc(F)c(C(=O)O)c3OB2O)n1` . State its measured Ki (P99/AmpC of ECL, NCF).
Y (0.1 μM to 1 μM)

Determine its reported Ki (P99/AmpC of ECL, NCF): `COc1ccc2c(c1C(=O)O)OB(O)[C@@H](Sc1nnc(SC(CN)CN)s1)C2`
Y (0.1 μM to 1 μM)

Let me know recorded Ki (P99/AmpC of ECL, NCF) for `COc1ccc2c(c1C(=O)O)OB(O)[C@@H](Sc1nnc(SCCN)s1)C2` , thanks.
Y (0.1 μM to 1 μM)

Identify the reported Ki (P99/AmpC of ECL, NCF) for the following entry. `O=C(O)c1c(OCCF)ccc2c1OB(O)[C@@H](Sc1nncs1)C2`
Y (0.1 μM to 1 μM)

Please indicate Ki (P99/AmpC of ECL, NCF) recorded for `COc1ccc2c(c1C(=O)O)OB(O)[C@@H](Sc1ncn(CCCC(=O)O)n1)C2`
X (Less than 0.1 μM)

Report Ki (P99/AmpC of ECL, NCF) for `COc1ccc2c(c1C(=O)O)OB(O)[C@@H](Sc1ncns1)C2`
Y (0.1 μM to 1 μM)
